Test: qHTS for Inhibitors of the Functional Ribonucleoprotein Complex (vRNP) of Lymphocytic Choriomeningitis Arenaviruses (LCMV): Viability assay - alamar blue signal for LCMV Primary Screen (AID 1347085); further: nearly all actives have a fitted effect of over 80% in size
Conditions: alamar blue viability counter-screen, LCMV vRNP screen cells; series mostly up to 57.5 µM
Inconclusive results are not listed. The source made the active and inactive calls. The call rests on the fitted dose curve; tested in HEK293 reporter line.
Output constraint: value belongs to active, inactive

MOLECULE: CCCCCCCC(=O)OCC(O)CO (stereo unspecified)
CLASS_LABEL: inactive

--- query ---
Challenge: I would be grateful if you could indicate the recorded call for Fc1cc(Br)ccc1CBr .
Response given: inactive

====

Assay: Quantitative High-Throughput drug screen in 47 multiple myeloma cell lines against the NCATS MIPE library collection: KMS26_JCRB cell viability assay (AID 1918975); further: nearly all actives have a fitted effect of over 45% in size
Details: KMS26 myeloma cells viability, CellTiter-Glo ATP, 48 h; series mostly up to 45.8 µM
Records with an inconclusive call do not appear. The source made the active and inactive calls. Calls come from the whole dose curve; as a rule, active = well fitted cell-killing curve with a large enough effect; inconclusive = small, poorly fitted or top-dose-only effect, or effect the other way; inactive = no such curve, though single readings can be large or run the other way.
Hi there, use one of these labels in your reply, thanks! active, inactive

The examples below pair each entry with its known result.
MOLECULE: O=C(Oc1ccc([N+](=O)[O-])cc1)N1CCC(C(O)(c2ccc3c(c2)OCO3)c2ccc3c(c2)OCO3)CC1
CLASS_LABEL: inactive
//
MOLECULE: O=c1[nH]c2ccccc2n1C1CCN(Cc2ccc(-c3[nH]c4cc5ncnc5cc4nc3-c3ccccc3)cc2)CC1
CLASS_LABEL: active
//
MOLECULE: Cc1c(C(=O)Nc2cccc(C(F)(F)F)c2)cc(-c2ccccc2)n1CCCN1CCOCC1
CLASS_LABEL: active
//
MOLECULE: C[C@H]([C@H](O)CCC(C)(C)O)[C@H]1CC[C@@]2(O)C3=CC(=O)[C@@H]4C[C@@H](O)[C@@H](O)C[C@]4(C)[C@@H]3CC[C@]12C
CLASS_LABEL: inactive
//
MOLECULE: C[C@@]12OC(=O)[C@]1([C@@H](O)[C@@H]1C=CCCC1)NC(=O)[C@H]2CCCl
CLASS_LABEL: active
//
MOLECULE: Cc1ccccc1-n1c(Cn2cnc3c(N)ncnc32)nc2cccc(C)c2c1=O
CLASS_LABEL: active

Challenge: Write down the call the test reported for this molecule. Item: C[C@@H]1CC[C@H]2[C@@H](C)C(=O)O[C@@H]3O[C@@]4(C)CC[C@H]1[C@]32OO4
Response given: active

Challenge: In this assay, the call recorded for CCNC(=O)C[C@@H]1N=C(c2ccc(Cl)cc2)c2cc(OC)ccc2-n2c(C)nnc21 was what?
Response given: active

Challenge: Check the results log: what was the call for CCOC(=O)c1cncn1[C@H](C)c1ccccc1 ?
Response given: inactive

Challenge: # outcome recorded in this test, key = Cc1c(C(=O)c2cccc3ccccc23)c2cccc3c2n1[C@H](CN1CCOCC1)CO3
Response given: active

Challenge: Field: outcome | Entry: CC(C)[C@H]1C(=O)N[C@H](CO)Cc2c[nH]c3cccc(c23)N1C
Response given: inactive

Challenge: Please state the recorded outcome for this molecule: C[C@@H]1O[C@@H](O[C@@H]2C=C3CC[C@@H]4[C@@H](CC[C@]5(C)[C@H](c6ccc(=O)oc6)CC[C@@]45O)[C@@]3(C)CC2)[C@H](O)[C@H](O)[C@H]1O
Response given: active

Challenge: How was C1=C2CCCN[C@H]2[C@@H]2C[C@H]1[C@@H]1CCCCN1C2 classified in this test?
Response given: inactive

Challenge: Please share the test call associated with CC(=CCCC1=CCC(C2=CC(=O)OC2O)OC1O)CCC1=C(C)CCCC1(C)C (configuration not stated) .
Response given: inactive

Challenge: Called result for C[C@H]1CCCC=CC2C[C@H](O)C[C@@H]2[C@H](O)C=CC(=O)O1 (some centres not stated)
Response given: inactive

Challenge: Check the results log: what was the call for CCCC[N+]1(C)[C@H]2CC(OC(=O)[C@H](CO)c3ccccc3)C[C@H]1[C@H]1O[C@H]12 (some centres not stated) ?
Response given: inactive

Challenge: How did this test come out for CN(C)[C@@H]1C(=O)C(C(N)=O)=C(O)[C@@]2(O)C(=O)C3=C(O)c4c(O)cccc4[C@@](C)(O)[C@H]3[C@H](O)[C@@H]12 ?
Response given: inactive
